Assay Comment: growth of efflux-deficient E. coli DRC39 – strain DRC39, OD650, 48 h, E. coli filamentation inducers, primary screen (AID 1179);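 also: screen aims at cell division blockers that make cells filament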
Protocol Conditions: E. coli DRC39 delta-acrAB growth, higher = more signal, called active from +8 up or from −8 down
// reported z-score per item

Compound	z-score
COC(=O)[C@@]1(Cc2ccccc2)[C@H]2c3cc(C(=O)N(C)C)n(Cc4ccc(O)c(OC)c4)c3C[C@H]2CN1C(=O)c1ccccc1	0.202
C=C(/C(=C/C[C@@H](OC(=O)c1ccncc1)c1cccc(OCCO)c1)c1cc(C(=O)OC)ccc1OC)C(C)C	1.42
NC(=O)NCC#Cc1ccc2c(c1)[C@]1(C(=O)N2)[C@H](c2ccc(OCCO)cc2)N2[C@H](c3ccccc3)[C@H](c3ccccc3)OC(=O)[C@H]2[C@@H]1C(=O)N1CCN(c2ncccn2)CC1	0.773
[N-]=[N+]=Nc1ccccc1[C@@H]1OC(c2ccc(OCCCO)cc2)=N[C@]1(CCS(=O)(=O)c1ccccc1)C(=O)NCc1ccccc1	1.01
C=C(C(=O)CC[C@H](OC(=O)c1cccnc1)c1ccc(OCCO)cc1)C(C)C	-0.899
C=C(/C(=C/C[C@@H](OC(C)=O)c1ccccc1OCCO)c1cnc2ccccc2c1)C(C)C	-0.667
C=CCOC(=O)[C@H]1[C@@H]2C(=O)O[C@@H](c3ccccc3)[C@@H](c3ccccc3)N2[C@@H](c2ccc(OCCOC(=O)[C@H]3C[C@H]4C(=O)N[C@@H](CCCCN(C)C)C(=O)N4[C@H]3c3ccc(O)cc3)cc2)[C@]12C(=O)Nc1ccccc12	-0.739
COCCOC(=O)N1C(=O)[C@@]2(c3ccccc31)[C@H](c1ccccc1OCCO)N1[C@H](c3ccccc3)[C@H](c3ccccc3)OC(=O)[C@H]1[C@@H]2C(=O)N1CCc2cc(OC)c(OC)cc2C1	-1.3
COCCCNC(=O)[C@@]1(Cc2ccccc2CN=[N+]=[N-])N=C(c2ccc(OCCCO)cc2)O[C@H]1c1ccccc1N=[N+]=[N-]	1.08
CCC[C@@H]1C[C@@]1(CCC)[C@@H](NC(=O)c1ccco1)c1ccc(Cl)cc1	0.105
O=C1N(CCS(=O)(=O)c2ccccc2)c2ccccc2[C@H]2OC(c3ccc(OCCCO)cc3)=N[C@@]12CCS(=O)(=O)c1ccccc1	1.04
O=C(CS)NCCCCCNC(=O)[C@@H]1C[C@@H]2C(=O)N3CCC[C@H]3C(=O)N2[C@@H]1c1ccc(O)cc1	-0.265
COCCOC(=O)N1C(=O)[C@@]2(c3cc(C#Cc4ccc(OC)cc4)ccc31)[C@H](c1ccc(OCCO)cc1)N1[C@H](c3ccccc3)[C@H](c3ccccc3)OC(=O)[C@H]1[C@@H]2C(N)=O	0.366
COC(=O)[C@@]1(Cc2ccc(OC)cc2)[C@H]2c3cc(C(=O)N(C)C)n(Cc4cc(C)n(C)n4)c3C[C@H]2CN1C(=O)c1ccccc1	-1.29
O=C1O[C@@H](c2ccccc2)[C@@H](c2ccccc2)N2[C@@H](c3ccc(O)cc3)[C@]3(C(=O)Nc4ccc(C#CC5=CCCCC5)cc43)[C@@H](C(=O)Nc3nc4ccccc4s3)[C@H]12	0.986
